ASSAY_NAME: Uptake in plant cells: LCMS quantification in treated Abutilon leaves and leaf washings
Format: in vivo
ASSAY_CONTEXT: Abutilon (plant), treated leaves (milled extract supernatant), topical, 10 μL of 400 μM formulation per leaf; Abutilon treated leaves, 24 hours after 10 μL of 400 μM formulated compound on leaf; read-out: Average Concentration μM (treated leaves)
PARAMETER_MEASURED: concentration at 24 h (µM)
Supply the numeric figure in µM, leaving out any unit text.

concentration at 24 h for COc1cnc(OC)n2nc(NS(=O)(=O)c3c(OCCOCCOCCOCCOCCOCCOc4ccc5c(c4)C(=O)N(C4CCC(=O)NC4=O)C5=O)cccc3C(F)(F)F)nc12 (stereo not shown) ?
0.491

* * *

TARGET_UNDER_TEST: plant cereblon (Cereblon ligand binding domain) (Arabidopsis thaliana, UniProt F4ISN3)
Sequence (F4ISN3 1-547): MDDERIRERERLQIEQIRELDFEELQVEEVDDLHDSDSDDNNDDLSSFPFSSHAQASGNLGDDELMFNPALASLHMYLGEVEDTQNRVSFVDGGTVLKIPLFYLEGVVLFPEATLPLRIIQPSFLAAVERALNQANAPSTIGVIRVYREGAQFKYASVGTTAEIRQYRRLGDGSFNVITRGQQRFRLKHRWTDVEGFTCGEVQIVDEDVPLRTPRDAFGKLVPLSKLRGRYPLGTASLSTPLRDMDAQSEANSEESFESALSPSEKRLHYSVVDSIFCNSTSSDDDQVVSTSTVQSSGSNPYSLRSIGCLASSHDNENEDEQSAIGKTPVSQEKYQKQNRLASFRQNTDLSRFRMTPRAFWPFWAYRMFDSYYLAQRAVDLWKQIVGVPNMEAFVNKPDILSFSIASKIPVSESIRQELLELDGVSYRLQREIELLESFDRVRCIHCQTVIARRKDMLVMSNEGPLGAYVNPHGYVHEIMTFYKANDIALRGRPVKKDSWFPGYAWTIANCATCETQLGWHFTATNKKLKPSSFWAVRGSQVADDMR
pKd: −log10 of the molar value.
Entries and their pKd

# example entries with known answers
| COMPOUND | pKd |
| --- | --- |
| COCCNC(=O)C1CCN(Cc2ccc(COc3cccc4c3CN([C@H]3CCC(=O)NC3=O)C4=O)cc2)CC1 | 6.00 to 7.00 |
| COCCNCC1COCCN1Cc1ccc(COc2cccc3c2CN([C@H]2CCC(=O)NC2=O)C3=O)cc1 (stereo partly drawn) | 6.00 to 7.00 |
| O=C1CCC(N2C(=O)c3ccccc3C2=O)C(=O)N1 (stereo not drawn) [Ref 1, Thalidomide, reference compound] | < 6.00 |
| COCCNC(=O)C1CCN(Cc2ccc(COc3cccc4c3CN(C3CCC(=O)NC3=O)C4=O)cc2)C1 (stereo not drawn) | 6.00 to 7.00 |
| COCCOCC1CCN(Cc2ccc(COc3cccc4c3CN([C@H]3CCC(=O)NC3=O)C4=O)cc2)CC1 | 6.00 to 7.00 |

Pending compound:
pKd for Nc1cccc2c1C(=O)N(C1CCC(=O)NC1=O)C2=O (stereo not drawn) [Ref 2, Pomalidomide, reference compound] ?
< 6.00

Entry source: patent US20240365736A1
